Measured values drawn from ChEMBL document CHEMBL1127799 for this set.

Listing: MIC of selected molecules
# System: Candida albicans
# ASSAY_REMARKS: Tested for minimum inhibitory concentration against Candida albicans 124 (Candida albicans) at pH of 6.5.
# Assay type: functional
Respond with the bare value in µg/mL.

CC[C@@H](C)[C@H]1C(=O)NCC(=O)N(C)[C@@H](C(C)C)C(=O)N[C@@H](Cc2ccc(O)cc2)C(=O)O[C@H](C)C(=O)N2CCCC[C@H]2C(=O)N(C)[C@@H](C(C)C)C(=O)N[C@@H](C(C)C)C(=O)N(C)[C@@H](CC(=O)O)C(=O)N(C)[C@@H]([C@@H](C)CC)C(=O)N1C    50
CC[C@@H](C)[C@H]1C(=O)NCC(=O)N(C)[C@@H](C(C)C)C(=O)N[C@@H](Cc2ccc(OC)cc2)C(=O)N[C@H](C)C(=O)N2CCCC[C@H]2C(=O)N(C)[C@@H](C(C)C)C(=O)N[C@@H](C(C)C)C(=O)N(C)[C@@H](CC(=O)O)C(=O)N(C)[C@@H]([C@@H](C)CC)C(=O)N1C    100

Now let's try a different one.
Notebook: CC[C@@H](C)[C@H]1C(=O)NCC(=O)N(C)[C@@H](C(C)C)C(=O)N[C@@H](Cc2ccc(OC)cc2)C(=O)O[C@H](C)C(=O)N2CCCC[C@H]2C(=O)N(C)[C@@H](C(C)C)C(=O)N[C@@H](C(C)C)C(=O)N(C)[C@@H](CCOC(C)=O)C(=O)N(C)[C@@H]([C@@H](C)CC)C(=O)N1C , MIC read as 50

====

# Tested on: Meyerozyma guilliermondii
# ASSAY_REMARKS: Tested for minimum inhibitory concentration against Candida guilliermondii 80 (C.g) at pH of 6.5.
# Type: functional
Listing: MIC of selected molecules

CC[C@@H](C)[C@H]1C(=O)NCC(=O)N(C)[C@@H](C(C)C)C(=O)N[C@@H](Cc2ccc(OC)cc2)C(=O)O[C@H](C)C(=O)N2CCCC[C@H]2C(=O)N(C)[C@@H](C(C)C)C(=O)N[C@@H](C(C)C)C(=O)N(C)[C@@H](CCOC(C)=O)C(=O)N(C)[C@@H]([C@@H](C)CC)C(=O)N1C    > 100 µg/mL
CC[C@@H](C)[C@H]1C(=O)NCC(=O)N(C)[C@@H](C(C)C)C(=O)N[C@@H](CC(=O)O)C(=O)O[C@H](C)C(=O)N2CCCC[C@H]2C(=O)N(C)[C@@H](C(C)C)C(=O)N[C@@H](C(C)C)C(=O)N(C)[C@@H](CC(=O)O)C(=O)N(C)[C@@H]([C@@H](C)CC)C(=O)N1C    > 100 µg/mL

Summary line: C=CCOC(=O)C[C@H]1C(=O)N(C)[C@@H]([C@@H](C)CC)C(=O)N(C)[C@@H]([C@H](C)CC)C(=O)NCC(=O)N(C)[C@@H](C(C)C)C(=O)N[C@@H](Cc2ccc(OCC=C)cc2)C(=O)O[C@H](C)C(=O)N2CCCC[C@H]2C(=O)N(C)[C@@H](C(C)C)C(=O)N[C@@H](C(C)C)C(=O)N1C , Meyerozyma guilliermondii, reported MIC = > 100 µg/mL

====

# Test system: Pichia kudriavzevii
# ASSAY_REMARKS: Tested for minimum inhibitory concentration against Candida krusei 132 (C.k) at pH of 4.5.
# Assay type: functional
Listing: MIC of selected molecules

Example results:
CC[C@@H](C)[C@H]1C(=O)NCC(=O)N(C)[C@@H](C(C)C)C(=O)N[C@@H](Cc2ccc(OC)cc2)C(=O)O[C@H](C)C(=O)N2CCCC[C@H]2C(=O)N(C)[C@@H](C(C)C)C(=O)N[C@@H](C(C)C)C(=O)N(C)[C@@H](CCCl)C(=O)N(C)[C@@H]([C@@H](C)CC)C(=O)N1C    > 100 µg/mL
CC[C@H](C)[C@H]1C(=O)NCC(=O)N(C)[C@@H](C(C)C)C(=O)N[C@@H](Cc2ccc(OC)cc2)C(=O)N[C@@H](C)C(=O)N[C@H](C)C(=O)N2CCCC[C@H]2C(=O)N(C)[C@@H](C(C)C)C(=O)N[C@@H](C(C)C)C(=O)N(C)[C@@H](CC(=O)O)C(=O)N(C)[C@@H]([C@@H](C)CC)C(=O)N1C    > 100 µg/mL

Notebook: CC[C@H](C)[C@H]1C(=O)NCC(=O)N(C)[C@@H](C(C)C)C(=O)N[C@@H](Cc2ccc(OC)cc2)C(=O)N[C@@H](C)C(=O)N[C@@H](C)C(=O)N2CCCC[C@H]2C(=O)N(C)[C@@H](C(C)C)C(=O)N[C@@H](C(C)C)C(=O)N(C)[C@@H](CC(=O)O)C(=O)N(C)[C@@H]([C@@H](C)CC)C(=O)N1C , MIC read as > 100 µg/mL

====

Listing: MIC of selected compounds
# Test system: Candida albicans
# ASSAY_REMARKS: Tested for minimum inhibitory concentration against Candida albicans 124 (Candida albicans) at pH of 6.5.
# Assay type: functional
Respond with the bare value in µg/mL.

CC[C@@H](C)[C@H]1C(=O)NCC(=O)N(C)[C@@H](C(C)C)C(=O)N[C@@H](Cc2ccc(OC)cc2)C(=O)O[C@H](C)C(=O)N2CCCC[C@H]2C(=O)N(C)[C@@H](C(C)C)C(=O)N[C@@H](C(C)C)C(=O)N(C)[C@@H](CC(=O)O)C(=O)N(C)[C@@H]([C@@H](C)CC)C(=O)N1C    50

Now let's try a different one.
Summary line: CC[C@@H](C)[C@H]1C(=O)NCC(=O)N(C)[C@@H](C(C)C)C(=O)N[C@@H](Cc2ccc(OC)cc2)C(=O)N[C@@H](C)C(=O)N2CCCC[C@H]2C(=O)N(C)[C@@H](C(C)C)C(=O)N[C@@H](C(C)C)C(=O)N(C)[C@@H](CC(=O)O)C(=O)N(C)[C@@H]([C@@H](C)CC)C(=O)N1C , Candida albicans, reported MIC = 6.25

====

# System: Candida albicans
# ASSAY_REMARKS: Tested for minimum inhibitory concentration against Candida albicans 124 (Candida albicans) at pH of 4.5.
# Assay type: functional
Listing: MIC of selected compounds

Notebook: CC[C@@H](C)[C@H]1C(=O)NCC(=O)N(C)[C@@H](C(C)C)C(=O)N[C@@H](Cc2ccc(O)cc2)C(=O)O[C@H](C)C(=O)N2CCCC[C@H]2C(=O)N(C)[C@@H](C(C)C)C(=O)N[C@@H](C(C)C)C(=O)N(C)[C@@H](CC(=O)O)C(=O)N(C)[C@@H]([C@@H](C)CC)C(=O)N1C , MIC read as > 100 µg/mL

Notebook: CC[C@@H](C)[C@H]1C(=O)NCC(=O)N(C)[C@@H](C(C)C)C(=O)N[C@@H](Cc2ccc(OC)cc2)C(=O)O[C@H](C)C(=O)N2CCCC[C@H]2C(=O)N(C)[C@@H](C(C)C)C(=O)N[C@@H](C(C)C)C(=O)N(C)[C@@H](CC(=O)OC(C)(C)C)C(=O)N(C)[C@@H]([C@@H](C)CC)C(=O)N1C , MIC read as > 100 µg/mL

Notebook: CC[C@H](C)[C@H]1C(=O)NCC(=O)N(C)[C@@H](C(C)C)C(=O)N[C@@H](Cc2ccc(OC)cc2)C(=O)N[C@@H](C)C(=O)N[C@@H](C)C(=O)N2CCCC[C@H]2C(=O)N(C)[C@@H](C(C)C)C(=O)N[C@@H](C(C)C)C(=O)N(C)[C@@H](CC(=O)O)C(=O)N(C)[C@@H]([C@@H](C)CC)C(=O)N1C , MIC read as > 100 µg/mL

Notebook: CC[C@@H](C)[C@H]1C(=O)NCC(=O)N(C)[C@@H](C(C)C)C(=O)N[C@@H](Cc2ccc(OCc3ccccc3)cc2)C(=O)O[C@H](C)C(=O)N2CCCC[C@H]2C(=O)N(C)[C@@H](C(C)C)C(=O)N[C@@H](C(C)C)C(=O)N(C)[C@@H](CC(=O)O)C(=O)N(C)[C@@H]([C@@H](C)CC)C(=O)N1C , MIC read as 50 µg/mL

Notebook: CC[C@@H](C)[C@H]1C(=O)NCC(=O)N(C)[C@@H](C(C)C)C(=O)N[C@@H](Cc2ccc(OC)cc2)C(=O)O[C@H](C)C(=O)N2CCCC[C@H]2C(=O)N(C)[C@@H](C(C)C)C(=O)N[C@@H](C(C)C)C(=O)N(C)[C@@H](CCOC(=O)c2ccccc2C(=O)O)C(=O)N(C)[C@@H]([C@@H](C)CC)C(=O)N1C , MIC read as > 100 µg/mL

Notebook: CC[C@@H](C)[C@H]1C(=O)NCC(=O)N(C)[C@@H](C(C)C)C(=O)N[C@@H](CC(=O)O)C(=O)O[C@H](C)C(=O)N2CCCC[C@H]2C(=O)N(C)[C@@H](C(C)C)C(=O)N[C@@H](C(C)C)C(=O)N(C)[C@@H](CC(=O)O)C(=O)N(C)[C@@H]([C@@H](C)CC)C(=O)N1C , MIC read as 100 µg/mL
